Tested on: Klebsiella pneumoniae
Protocol Text: Antimicrobial activity against Klebsiella pneumoniae isolate A-1797 expressing VIM-1 and KPC-2 genes by microdilution method
Format: functional
Hi there, I'd appreciate the recorded MIC for every entry that follows.

Give the observed MIC of C[C@H]1[C@H](NC(=O)/C(=N\OC(C)(C)C(=O)O)c2csc(N)n2)C(=O)N1S(=O)(=O)O [AZTREONAM] for Klebsiella pneumoniae.
64 µg/mL

Give the observed MIC of CC(C)(O/N=C(\C(=O)N[C@@H]1C(=O)N2C(C(=O)[O-])=C(C[n+]3ccccc3)CS[C@H]12)c1csc(N)n1)C(=O)O [CEFTAZIDIME] for Klebsiella pneumoniae.
> 256 µg/mL

Give the observed MIC of C[C@@H](O)[C@H]1C(=O)N2C(C(=O)O)=C(S[C@@H]3CN[C@H](C(=O)Nc4cccc(C(=O)O)c4)C3)[C@H](C)[C@H]12 for Klebsiella pneumoniae.
8 µg/mL

Give the observed MIC of C[C@@H](O)[C@H]1C(=O)N2C(C(=O)O)=C(SCCNC=N)C[C@H]12 [IMIPENEM ANHYDROUS] for Klebsiella pneumoniae.
2 µg/mL

Give the observed MIC of CO/N=C(\C(=O)N[C@@H]1C(=O)N2C(C(=O)O)=C(COC(C)=O)CS[C@H]12)c1csc(N)n1 [CEFOTAXIME] for Klebsiella pneumoniae.
> 256 µg/mL

Give the observed MIC of C[C@@H](O)[C@H]1C(=O)N2C(C(=O)O)=C(S[C@@H]3CN[C@H](C(=O)N(C)C)C3)[C@H](C)[C@H]12 [MEROPENEM] for Klebsiella pneumoniae.
2 µg/mL

Give the observed MIC of CO/N=C(\C(=O)N[C@@H]1C(=O)N2C(C(=O)[O-])=C(C[N+]3(C)CCCC3)CS[C@H]12)c1csc(N)n1 for Klebsiella pneumoniae.
16 µg/mL
